Origin of the recorded values: patent US20250213546A1

experiment.summary: Human liver microsome stability
Assay type: in vitro ADME
settings: 60 min, given as fraction
readout.label: Human Liver Microsome Stability Remaining(T = 60 min)
The response must contain the number and no unit.

Some entries whose results are on file:
{"molecule": "N[C@H](C(=O)N1CCCC(c2ccccc2)(c2ccccc2)C1)C1CC1", "reported.result": 0.7723}
{"molecule": "Cc1cccn2c(CC(=O)NCCC(c3ccccc3)c3ccco3)cnc12 (stereo not shown)", "reported.result": 0.0005}
{"molecule": "O=C(O)Cc1ccccc1Nc1c(Cl)cccc1Cl [Diclofenac, reference compound]", "reported.result": 0.00044}

// next entry
Data request: // lookup Human Liver Microsome Stability Remaining(T = 60 min) for C[C@]12CC[C@H]3[C@@H](CCC4=CC(=O)CC[C@@]43C)[C@@H]1CC[C@@H]2O [Testosterone, reference compound]
Data returned: 0.06959
